Test system: COLO 205
Experiment: Cytotoxicity against human COLO205 cells assessed as growth inhibition at 50 uM after 48 hrs by SRB assay relative to control
Format: functional
Conditions: COLO 205, 48 h, read-out: GI
We'd kindly ask you to apply these inhibition of growth at 50 µM classes: lower level = under 60%, middle level = from 60% up to 70%, upper level = 70% and over

stdin: Bin? O=C1C(=O)N(CCCn2cc(COc3cc(=O)oc4ccccc34)nn2)c2ccc(Cl)cc21
stdout: middle level

stdin: Class (by measured inhibition of growth at 50 µM) for O=C1C(=O)N(CCCCCn2cc(COc3cc(=O)oc4ccccc34)nn2)c2ccc(Cl)cc21
stdout: lower level

stdin: Hi, small favor: classify O=C1C(=O)N(CCCn2cc(COc3cc(=O)oc4ccccc34)nn2)c2ccccc21 by its inhibition of growth at 50 µM when you get a moment.
stdout: upper level

stdin: Which class is correct for the following compound? COc1ccc2c(c1)C(=O)C(=O)N2CCCn1cc(COc2cc(=O)oc3ccccc23)nn1
stdout: lower level

stdin: Sort O=C1C(=O)N(CCCCCn2cc(COc3cc(=O)oc4ccccc34)nn2)c2ccc([N+](=O)[O-])cc21 into one of the categories.
stdout: lower level

stdin: State the band of O=C1C(=O)N(CCn2cc(COc3cc(=O)oc4ccccc34)nn2)c2ccc(Br)cc21
stdout: middle level

stdin: Which band does O=C1C(=O)N(CCCCCn2cc(COc3cc(=O)oc4ccccc34)nn2)c2ccc(F)cc21 fall in?
stdout: lower level

stdin: Lab note: which band did O=C1C(=O)N(CCn2cc(COc3cc(=O)oc4ccccc34)nn2)c2ccccc21 land in?
stdout: upper level

stdin: Which bin should I file O=C1C(=O)N(CCn2cc(COc3cc(=O)oc4ccccc34)nn2)c2ccc(F)cc21 under?
stdout: upper level
